Test system: HEK-293T
EXPERIMENTAL DETAILS: Multiplex assay against HEK293T
Format: toxicity, cell-based
MEASUREMENT CONDITIONS: human, 24 h, 10 µM, compound concentration 10 uM, replicate 2
Outcome label depends on Population Mitochondria Different-Phenotype (%) relative to 50%: at/above gives class 1, below gives class 0.

COMPOUND | GROUP LABEL
CN(C)c1ccnc2sc3c(=O)n(N4CCCCCC4)cnc3c12 | class 1
Cl.Clc1ccc2nsnc2c1NC1=NCCN1 [TIZANIDINE HYDROCHLORIDE] | class 0
CC(C)(C)c1ccc(S(=O)(=O)Nc2ccc(Cl)cc2C(=O)c2cc[n+]([O-])cc2)cc1 | class 0
COc1c(C)cc(NC(=O)c2nn(Cc3ccc(F)cc3)c3c2CN(C(=O)c2ccc[nH]2)C[C@]3(C)C(N)=O)cc1C | class 1
Cc1ccc(F)cc1C(=O)Nc1ccc(C(=O)N2Cc3cccn3Cc3ccccc32)c(Cl)c1 | class 1
Cc1ccc(C(C)(O)c2nc3ccccc3s2)c(C)c1 (stereo not drawn) | class 1
Cc1ccc(/C(=C\CN2CCCC2)c2ccccn2)cc1 | class 1
CN1CCN(c2nc3cc(C(F)(F)F)ccc3n3cccc23)CC1.O=C(O)/C=C\C(=O)O.O=C(O)/C=C\C(=O)O | class 1
Oc1c(CN2CCN(c3ccccn3)CC2)cc(Cl)c2cccnc12 | class 1
C[C@H](NC(=O)c1c(C(F)F)nn(C)c1Oc1cccc(C(F)(F)F)c1)c1ccc(C(=O)O)cc1 | class 1
C[C@@H]1C[C@H]2[C@@H]3CCC4=CC(=O)C=C[C@]4(C)[C@@]3(F)[C@@H](O)C[C@]2(C)[C@@]1(O)C(=O)CO | class 0
CC(=O)NCCc1c(Cc2ccccc2)[nH]c2ccccc12 | class 1
CSc1ccccc1N1CCN(CCCCCC(=O)NC2CCCc3ccccc32)CC1.Cl (stereo not drawn) | class 1
CNC[C@H](O)c1ccc(O)c(O)c1 [EPINEPHRINE] | class 0
CN(C)CCCc1cc(C(=O)Nc2ccc(-c3ccncc3)cc2)ccc1O.Cl.Cl | class 0
O=S(=O)(c1ccccc1)c1cnc2c(N3CCNCC3)cccc2c1 [INTEPIRDINE] | class 1

====

Test system: Fibroblast
EXPERIMENTAL DETAILS: Multiplex assay against human fibroblast
Assay type: toxicity, cell-based
MEASUREMENT CONDITIONS: 48 h, 1 µM, compound concentration 1 uM, replicate 1
Criterion: Population Mitotic Cells (%) strictly under 40%. Met: Met. Not met: Not met.

COMPOUND | TARGET ENTITY | GROUP LABEL
CC(C)(C)c1ccc(S(=O)(=O)Nc2ccc(Cl)cc2C(=O)c2cc[n+]([O-])cc2)cc1 [VERCIRNON] | Fibroblast | Met
O=S(=O)(c1ccccc1)c1cnc2c(N3CCNCC3)cccc2c1 [INTEPIRDINE] | Fibroblast | Met
CCNC1(C(N)=O)CCN(c2ncnc3c2nc(-c2ccccc2Cl)n3-c2ccc(Cl)cc2)CC1 [OTENABANT] | Fibroblast | Met
Cc1nc2ccc(Oc3ccc(F)cc3)cc2c(=O)n1C[C@H]1CCCN(C(C)C)C1.Cl | Fibroblast | Met
CCCC(CCC)C(=O)O [VALPROIC ACID] | Fibroblast | Not met
CCCN1CCC[C@@H]2Cc3n[nH]cc3C[C@H]21.Cl [QUINPIROLE HYDROCHLORIDE] | Fibroblast | Met
CN1CCN(c2nc3cc(C(F)(F)F)ccc3n3cccc23)CC1.O=C(O)/C=C\C(=O)O.O=C(O)/C=C\C(=O)O | Fibroblast | Not met
Cc1ccc(C(C)(O)c2nc3ccccc3s2)c(C)c1 (centres undefined) | Fibroblast | Not met
CC(=O)NCCc1c(Cc2ccccc2)[nH]c2ccccc12 [LUZINDOLE] | Fibroblast | Met
C[C@H]1[C@H]2CC[C@H]3[C@@H]4CC=C5C[C@@H](N(C)C)CC[C@]5(C)[C@H]4CC[C@]23CN1C [CONESSINE] | Fibroblast | Not met
O=C1COc2nccc(-c3ccccc3F)c2CN1Cc1cc(C(F)(F)F)cc(C(F)(F)F)c1 | Fibroblast | Met
c1cc(OCCCN2CCCCC2)ccc1CN1CCCCC1 [JNJ-5207852] | Fibroblast | Met
O=C(NCCO)c1cccc(-c2cc(Nc3ccc(OC(F)(F)F)cc3)ncn2)c1 | Fibroblast | Met
COc1cc(NC(=O)CCN2CCC(OC(=O)Nc3ccccc3-c3ccccc3)CC2)c(Cl)cc1CNC[C@H](O)c1ccc(O)c2[nH]c(=O)ccc12 [BATEFENTEROL] | Fibroblast | Met
CNC[C@H](O)c1ccc(O)c(O)c1 [EPINEPHRINE] | Fibroblast | Not met
CCOc1c2c(c(OCC)c3ncccc13)CN(c1ccc(CS(=O)(=O)NC(=O)Cc3ccccc3OC)cc1C)C2=O | Fibroblast | Not met
Cl.Clc1ccc2nsnc2c1NC1=NCCN1 [TIZANIDINE HYDROCHLORIDE] | Fibroblast | Not met
Cc1ccccc1C(=O)Nc1ccc(C(=O)N2CCCC(N(C)C)c3ccccc32)cc1.Cl (centres undefined) | Fibroblast | Not met

====

Reported values of Population Hoechst High Intensity Objects (%) for individual entries
Tested on: U2OS
EXPERIMENTAL DETAILS: Multiplex assay against U2OS
Format: toxicity, cell-based
MEASUREMENT CONDITIONS: human, 12 h, 1 µM, compound concentration 1 uM, replicate 1
OBSERVED PROPERTY: Population Hoechst High Intensity Objects (%)

COMPOUND | TARGET ENTITY | MEASURED RESULT
O=C(O)c1cc2ccccc2c(Cc2c(O)c(C(=O)O)cc3ccccc23)c1O [PAMOIC ACID] | U2OS | 1%
C[C@H](NC(=O)c1c(C(F)F)nn(C)c1Oc1cccc(C(F)(F)F)c1)c1ccc(C(=O)O)cc1 [PALUPIPRANT] | U2OS | 3%
CN1CCN(c2nc3cc(C(F)(F)F)ccc3n3cccc23)CC1.O=C(O)/C=C\C(=O)O.O=C(O)/C=C\C(=O)O | U2OS | 1%

====

Test system: Fibroblast
EXPERIMENTAL DETAILS: Multiplex assay against human fibroblast
Assay type: toxicity, cell-based
MEASUREMENT CONDITIONS: 12 h, 1 µM, compound concentration 1 uM, replicate 1
OBSERVED PROPERTY: Population Apoptotic (%)

MOLECULE | OBSERVED PROPERTY | MEASURED RESULT
c1cc(OCCCN2CCCCC2)ccc1CN1CCCCC1 | Population Apoptotic (%) | 37
O=S(=O)(c1ccccc1)c1cnc2c(N3CCNCC3)cccc2c1 [INTEPIRDINE] | Population Apoptotic (%) | 50
O=C1COc2nccc(-c3ccccc3F)c2CN1Cc1cc(C(F)(F)F)cc(C(F)(F)F)c1 | Population Apoptotic (%) | 38

====

Test system: U2OS
EXPERIMENTAL DETAILS: Multiplex assay against U2OS
Format: toxicity, cell-based
MEASUREMENT CONDITIONS: human, 24 h, 10 µM, compound concentration 10 uM, replicate 2
Each entry falls in a class defined on Population Mitotic Cells (%); the bands are lower = under 6%, middle = from 6% up to 20%, upper = 20% and over

MOLECULE | GROUP LABEL
O=C(NCCO)c1cccc(-c2cc(Nc3ccc(OC(F)(F)F)cc3)ncn2)c1 | lower
N#Cc1c(N)nc(SCc2csc(-c3ccc(Cl)cc3)n2)c(C#N)c1-c1ccc(OCCO)cc1 | upper
CCCC(CCC)C(=O)O | lower
CN1CCN2c3ncccc3Cc3ccccc3C2C1 (centres undefined) | middle
O=S(=O)(c1ccccc1)c1cnc2c(N3CCNCC3)cccc2c1 [INTEPIRDINE] | upper
Cc1ccc(/C(=C\CN2CCCC2)c2ccccn2)cc1 | upper
CC1(COc2ccc3c(c2)ncn3-c2ccc3cccc(N4CCC(N)CC4)c3n2)COC1 | lower
CSc1ccccc1N1CCN(CCCCCC(=O)NC2CCCc3ccccc32)CC1.Cl (centres undefined) | lower
COc1cc(NC(=O)CCN2CCC(OC(=O)Nc3ccccc3-c3ccccc3)CC2)c(Cl)cc1CNC[C@H](O)c1ccc(O)c2[nH]c(=O)ccc12 | upper
Cc1ccc(C(C)(O)c2nc3ccccc3s2)c(C)c1 (centres undefined) | upper
O=C(NCC(=O)N1CC[C@H](N[C@H]2CC[C@@](O)(c3ccc(-c4ncccn4)cn3)CC2)C1)c1cccc(C(F)(F)F)c1 | upper
CN(C)CCCc1cc(C(=O)Nc2ccc(-c3ccncc3)cc2)ccc1O.Cl.Cl | upper
CN1CCN(c2nc3cc(C(F)(F)F)ccc3n3cccc23)CC1.O=C(O)/C=C\C(=O)O.O=C(O)/C=C\C(=O)O | upper
O=C(O)Cc1ccccc1Nc1c(Cl)cccc1Cl | middle
COc1ccc2c(c1)C(C(=O)N(Cc1ccc(N(C)C)cc1)c1ccc(C(C)C)cc1)CCC2.Cl (centres undefined) | middle
CCOc1c2c(c(OCC)c3ncccc13)CN(c1ccc(CS(=O)(=O)NC(=O)Cc3ccccc3OC)cc1C)C2=O | lower
CCCN1CCC[C@@H]2Cc3n[nH]cc3C[C@H]21.Cl [QUINPIROLE HYDROCHLORIDE] | middle
Oc1c(CN2CCN(c3ccccn3)CC2)cc(Cl)c2cccnc12 | lower
